Recorded values, source patent US9718781B2.

# tgt: TPα (Homo sapiens, UniProt P21731)
# Construct: expressed in transfected cells
# Sequence (P21731 1-343): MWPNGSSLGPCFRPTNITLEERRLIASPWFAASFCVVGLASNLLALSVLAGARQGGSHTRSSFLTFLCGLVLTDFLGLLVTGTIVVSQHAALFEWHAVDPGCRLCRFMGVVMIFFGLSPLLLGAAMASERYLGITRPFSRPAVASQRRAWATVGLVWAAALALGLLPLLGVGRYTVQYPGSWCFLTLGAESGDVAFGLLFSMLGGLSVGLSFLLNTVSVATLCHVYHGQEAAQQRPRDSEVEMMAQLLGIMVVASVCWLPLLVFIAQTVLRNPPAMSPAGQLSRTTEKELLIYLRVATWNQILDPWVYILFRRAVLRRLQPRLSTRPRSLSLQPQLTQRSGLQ
# protocol-details: U46619-induced [Ca2+]i mobilization in HEK.TPα cells
# Assay type: cell-based
# run-parameters: antagonist 10 μM; 1 μM U46619; % of agonist-induced response in vehicle-treated cells; read-out: Percentage of Control, TPα, 10 μM

molecular-string	unit-name	remaining activity at 10 µM
COc1ccc(-c2cccc(Oc3ccc(C(=O)Nc4ccccc4)cc3S(=O)(=O)NC(=O)NC(C)(C)C)c2)cc1	%	65.5
CNC(=O)c1ccc(Oc2cccc(-c3ccc(OC)cc3)c2)c(S(=O)(=O)NC(=O)NC(C)(C)C)c1	%	69.8
COc1ccc(-c2cccc(Oc3ccc(C(=O)NCCN(C)C)cc3S(=O)(=O)NC(=O)NC(C)(C)C)c2)cc1	%	52.6
COc1ccc(-c2cccc(Oc3ccc(-c4cn[nH]c4)cc3S(=O)(=O)NC(=O)NC(C)(C)C)c2)cc1	%	73.6
COc1ccc(-c2cccc(Oc3ccc(C(=O)N(C)C)cc3S(=O)(=O)NC(=O)NC(C)(C)C)c2)cc1	%	54.9
COc1ccc(-c2cccc(Oc3ccc(Cl)cc3S(=O)(=O)NC(=O)NC(C)(C)C)c2)cc1	%	23.3
COc1ccc(-c2cccc(Oc3cc[n+]([O-])cc3S(=O)(=O)NC(=O)NC(C)(C)C)c2)cc1	%	52.8

====

# Tested on: human platelets
# protocol-details: Thrombin-induced platelet aggregation of human platelets ex vivo
# Type: cell-based
measured-property: effect on thrombin-induced platelet aggregation

compound	experimental-result
CC(=O)c1ccc(-c2cccc(Oc3ccc([N+](=O)[O-])cc3S(=O)(=O)NC(=O)NC(C)(C)C)c2)cc1 [XLV]	did not affect
Cc1ccc(-c2cccc(Oc3ccc([N+](=O)[O-])cc3S(=O)(=O)NC(=O)NC(C)(C)C)c2)cc1 [XLI]	did not affect
COc1ccc(-c2cccc(Oc3ccc([N+](=O)[O-])cc3S(=O)(=O)NC(=O)NC(C)(C)C)c2)cc1 [TP20]	did not affect
CC(C)(C)NC(=O)NS(=O)(=O)c1cc([N+](=O)[O-])ccc1Oc1cccc(-c2ccc(C(F)(F)F)cc2)c1 [XII]	did not affect
COC(=O)c1ccc(-c2cccc(Oc3ccc([N+](=O)[O-])cc3S(=O)(=O)NC(=O)NC(C)(C)C)c2)cc1 [XLVI]	did not affect

====

# tgt: TPβ (Homo sapiens)
# Construct: expressed in transfected cells
# protocol-details: U46619-induced [Ca2+]i mobilization in HEK.TPβ cells
# Format: cell-based
# run-parameters: antagonist 10 μM; 1 μM U46619; % of agonist-induced response in vehicle-treated cells; read-out: Percentage of Control, TPβ, 10 μM
Classify: met when remaining activity at 10 µM is strictly less than 20%; not met when remaining activity at 10 µM is not.

compound	answer-label
COc1ccc(-c2cccc(Oc3ccc(C(=O)NCCN(C)C)cc3S(=O)(=O)NC(=O)NC(C)(C)C)c2)cc1 [NTP15]	not met
COc1ccc(-c2cccc(Oc3ccc(C(=O)N(C)C)cc3S(=O)(=O)NC(=O)NC(C)(C)C)c2)cc1 [NTP2]	not met
COc1ccc(-c2cccc(Oc3ccc(S(C)(=O)=O)cc3S(=O)(=O)NC(=O)NC(C)(C)C)c2)cc1 [NTP27]	met
COc1ccc(-c2cccc(Oc3ccc([N+](=O)[O-])cc3S(=O)(=O)NC(=O)NC(C)(C)C)c2)cc1 [TP20]	met
COc1ccc(-c2cccc(Oc3ccc(C(=O)Nc4ncco4)cc3S(=O)(=O)NC(=O)NC(C)(C)C)c2)cc1 [NTP24]	not met
COc1ccc(-c2cccc(Oc3ccc(C(=O)N4CCC4)cc3S(=O)(=O)NC(=O)NC(C)(C)C)c2)cc1 [NTP17]	met

====

# tgt: TPβ (Homo sapiens, UniProt P21731)
# Construct: expressed in transfected cells
# protocol-details: U46619-induced [Ca2+]i mobilization in HEK.TPβ cells
# Type: cell-based
# run-parameters: antagonist 1 μM; 1 μM U46619; % of agonist-induced response in vehicle-treated cells; read-out: Percentage of Control, TPβ, 1 μM
Measured remaining activity at 1 µM accompanies every entry in the list below.
measured-property: remaining activity at 1 µM

molecular-string	experimental-result
COc1ccc(-c2cccc(Oc3ccc(C(N)=O)cc3S(=O)(=O)NC(=O)NC(C)(C)C)c2)cc1	74%
COc1ccc(-c2cccc(Oc3ccc(-c4ccoc4)cc3S(=O)(=O)NC(=O)NC(C)(C)C)c2)cc1	42.5%
COc1ccc(-c2cccc(Oc3ccc(C(=O)NC4COC4)cc3S(=O)(=O)NC(=O)NC(C)(C)C)c2)cc1	84.2%
COc1ccc(-c2cccc(Oc3ccc(-c4c(C)noc4C)cc3S(=O)(=O)NC(=O)NC(C)(C)C)c2)cc1	77.7%
COc1ccc(-c2cccc(Oc3ccc(C(=O)N(C)C)cc3S(=O)(=O)NC(=O)NC(C)(C)C)c2)cc1	102%
CCn1cc(-c2ccc(Oc3cccc(-c4ccc(OC)cc4)c3)c(S(=O)(=O)NC(=O)NC(C)(C)C)c2)cn1	94.4%
COCCNC(=O)c1ccc(Oc2cccc(-c3ccc(OC)cc3)c2)c(S(=O)(=O)NC(=O)NC(C)(C)C)c1	86.4%

====

# tgt: TPα (Homo sapiens)
# Construct: expressed in transfected cells
# Sequence (P21731 1-343): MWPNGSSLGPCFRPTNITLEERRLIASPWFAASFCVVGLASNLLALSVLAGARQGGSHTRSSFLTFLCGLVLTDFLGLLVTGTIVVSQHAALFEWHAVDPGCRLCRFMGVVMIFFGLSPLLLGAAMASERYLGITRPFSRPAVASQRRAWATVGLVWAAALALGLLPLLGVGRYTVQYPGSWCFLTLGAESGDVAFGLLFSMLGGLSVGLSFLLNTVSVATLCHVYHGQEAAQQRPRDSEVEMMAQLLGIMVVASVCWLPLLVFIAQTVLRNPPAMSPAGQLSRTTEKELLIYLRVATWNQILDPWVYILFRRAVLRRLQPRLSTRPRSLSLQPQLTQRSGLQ
# protocol-details: U46619-induced [Ca2+]i mobilization in HEK.TPα cells
# Type: cell-based
# run-parameters: antagonist 10 μM; 1 μM U46619; % of agonist-induced response in vehicle-treated cells; read-out: Percentage of Control, TPα, 10 μM
Range-based classes on measured remaining activity at 10 µM: bin 1 (below 50%), bin 2 (50% to below 90%), bin 3 (90% or more)

molecule	answer-label
COc1ccc(-c2cccc(Oc3ccc(S(C)(=O)=O)cc3S(=O)(=O)NC(=O)NC(C)(C)C)c2)cc1 [NTP27]	bin 2
Cc1ccc(Nc2ccc([N+](=O)[O-])cc2S(=O)(=O)NC(=O)NC(C)(C)C)cc1 [BM573, reference compound]	bin 1
COc1ccc(-c2cccc(Oc3ccc(-c4ccco4)cc3S(=O)(=O)NC(=O)NC(C)(C)C)c2)cc1 [NTP21]	bin 2
COc1ccc(-c2cccc(Oc3ccc(C(N)=O)cc3S(=O)(=O)NC(=O)NC(C)(C)C)c2)cc1 [NTP13]	bin 3
COc1ccc(-c2cccc(Oc3ccc(C(F)(F)F)cc3S(=O)(=O)NC(=O)NC(C)(C)C)c2)cc1 [NTP3]	bin 1
COc1ccc(-c2cccc(Oc3ccc([N+](=O)[O-])cc3S(=O)(=O)NC(=O)NC(C)(C)C)c2)cc1 [TP20]	bin 1
COc1ccc(-c2cccc(Oc3ccc(C(=O)Nc4ncco4)cc3S(=O)(=O)NC(=O)NC(C)(C)C)c2)cc1 [NTP24]	bin 3

====

# tgt: TPα (Homo sapiens)
# Construct: expressed in transfected cells
# Sequence (P21731 1-343): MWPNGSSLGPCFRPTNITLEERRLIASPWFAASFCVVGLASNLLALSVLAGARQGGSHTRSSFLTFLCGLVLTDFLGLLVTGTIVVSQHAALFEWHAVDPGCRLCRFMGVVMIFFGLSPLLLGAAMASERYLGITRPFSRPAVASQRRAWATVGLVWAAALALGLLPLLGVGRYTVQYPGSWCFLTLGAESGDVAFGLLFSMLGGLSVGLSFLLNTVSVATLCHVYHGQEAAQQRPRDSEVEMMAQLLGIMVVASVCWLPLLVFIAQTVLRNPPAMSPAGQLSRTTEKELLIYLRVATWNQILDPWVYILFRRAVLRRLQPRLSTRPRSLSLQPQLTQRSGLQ
# protocol-details: U46619-induced [Ca2+]i mobilization in HEK.TPα cells
# Assay type: cell-based
# run-parameters: antagonist 1 μM; 1 μM U46619; % of agonist-induced response in vehicle-treated cells; read-out: Percentage of Control, TPα, 1 μM

molecular-string	tgt	remaining activity at 1 µM [%]
COc1ccc(-c2cccc(Oc3ccc(C(=O)NCCN(C)C)cc3S(=O)(=O)NC(=O)NC(C)(C)C)c2)cc1	TPα (Homo sapiens)	79.8
COc1ccc(-c2cccc(Oc3ccc(-c4ccco4)cc3S(=O)(=O)NC(=O)NC(C)(C)C)c2)cc1	TPα (Homo sapiens)	78.3
COc1ccc(-c2cccc(Oc3ccc(C(=O)Nc4ccccc4)cc3S(=O)(=O)NC(=O)NC(C)(C)C)c2)cc1	TPα (Homo sapiens)	80
COc1ccc(-c2cccc(Oc3ccc(N)cc3S(=O)(=O)NC(=O)NC(C)(C)C)c2)cc1	TPα (Homo sapiens)	77.8
COc1ccc(-c2cccc(Oc3ccc(S(C)(=O)=O)cc3S(=O)(=O)NC(=O)NC(C)(C)C)c2)cc1	TPα (Homo sapiens)	81.1
